protocol-description: small-molecule microarray binders of probe aShh, primary screen, biochemical, biotinylated probe, 635/667 nm fluorescence (AID 1114);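 also: probe is biotin-labelled aShh protein from a stem cell growth factor screen; measures binding of labelled protein to compounds printed on the slide; score merges feature fluorescence at 667 nm with signal-to-noise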
test-conditions: higher = more signal
For each record, write down the corresponding composite z-score.

Examples with their reported composite z-score follow.
>  <compound>
O=C1NC(=O)C2C1C=CC(C(O)c1cccc3ccccc13)N2Nc1ccc(Cl)cc1Cl (centres undefined)

>  <measured-parameter>
composite z-score

>  <result>
0.481

$$$$
>  <compound>
COc1ccc(CCNC(=O)[C@@H]2c3ccccc3C(=O)N(Cc3cc(C(F)(F)F)cc(C(F)(F)F)c3)[C@H]2c2ccc(CO)cc2)cc1

>  <measured-parameter>
composite z-score

>  <result>
-0.147

$$$$
>  <compound>
COc1ccc(C#Cc2ccc3c(c2)[C@]2(C(=O)N3)[C@H](c3ccc(O)cc3)N3[C@H](c4ccccc4)[C@H](c4ccccc4)OC(=O)[C@H]3[C@@H]2C(=O)O)cc1

>  <measured-parameter>
composite z-score

>  <result>
-0.315

$$$$

Now take the following compound into account.
[in] Name the recorded composite z-score for "CCCCC=C[C@@H](NC(=O)c1ccc(-c2ccccc2)cc1)c1ccccc1" .
[out] 0.934

###

protocol-description: small-molecule microarray binders of probe aDKK1, primary screen, biochemical, biotinylated probe, 635/667 nm fluorescence (AID 1099);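 also: score merges 667nm spot fluorescence with signal to noise across triplicate slides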
test-conditions: higher = more signal
measured-parameter: composite z-score
Answers are plain numbers.

Please report composite z-score for every entry that follows.
1. COC(=O)C(CC#Cc1ccc2c(c1)[C@]1(C(=O)N2)[C@H](c2ccccc2OCCO)N2[C@H](c3ccccc3)[C@H](c3ccccc3)OC(=O)[C@H]2[C@@H]1C(=O)NC[C@H](O)c1ccccc1)C(=O)OC
2. CC(C)C(=C=CC[C@H](O)c1ccc(OCCO)cc1)C[C@H](O)c1ccccn1
3. C=CC[C@]1(C(=O)NCCN2CCOCC2)N=C(c2ccc(OCCCO)cc2)O[C@H]1c1ccccc1CN=[N+]=[N-]
4. CCCCC=C[C@@H](NC(=O)c1ccc(-c2ccccc2)cc1)c1ccccc1
5. CCCCCCc1nc(-c2cc(C)c(OC)c(C)c2)c(C)c2c1[Si](C(C)C)(C(C)C)OC2
6. COCCCNC(=O)[C@@]1(Sc2ccc(C)cc2)CC(=O)N(C2CCCCC2)[C@@H]1c1ccc(CO)cc1
7. COc1cccc(/C=C/C=O)c1

[out]
1: -0.378; 2: -0.0813; 3: 0.96; 4: 0.0006; 5: 0.101; 6: 0.196; 7: 0.24

[in] What value of measured composite z-score is listed for "CCOC(=O)C[C@H]1[C@H](OC(=O)Cc2ccc3c(c2)OCO3)[C@@H](NC(=O)Cc2ccc(OC)cc2)c2cc(OCCCO)ccc2N1C(=O)c1ccc2ccccc2n1" ?
[out] -0.189

###

assay-target: Albumin (Bos taurus) (UniProt P02769)
Sequence (P02769 whole entry, looked up): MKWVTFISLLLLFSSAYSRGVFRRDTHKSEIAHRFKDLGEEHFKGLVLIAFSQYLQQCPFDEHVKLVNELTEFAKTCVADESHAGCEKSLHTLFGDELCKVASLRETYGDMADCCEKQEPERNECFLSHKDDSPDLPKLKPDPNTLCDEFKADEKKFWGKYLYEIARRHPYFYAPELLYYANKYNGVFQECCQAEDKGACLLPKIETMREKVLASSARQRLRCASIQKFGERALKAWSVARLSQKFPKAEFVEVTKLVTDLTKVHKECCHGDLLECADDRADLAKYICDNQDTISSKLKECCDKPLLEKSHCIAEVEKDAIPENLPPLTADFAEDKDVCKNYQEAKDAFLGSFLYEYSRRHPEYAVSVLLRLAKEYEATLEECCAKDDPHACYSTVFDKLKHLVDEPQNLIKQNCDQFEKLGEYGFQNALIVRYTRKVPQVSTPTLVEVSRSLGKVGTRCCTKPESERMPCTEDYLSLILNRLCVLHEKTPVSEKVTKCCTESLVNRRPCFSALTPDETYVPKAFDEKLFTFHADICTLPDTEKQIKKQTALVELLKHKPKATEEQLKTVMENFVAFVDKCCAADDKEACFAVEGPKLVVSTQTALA
protocol-description: bovine serum albumin binders on microarray, profiling panel, artefact control for SMM control protein annotation, biochemical, small-molecule microarray, Alexa647 label, 635/667 nm fluorescence (AID 1118);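 also: score merges 667 nm emission intensity and signal-to-noise per printed compound spot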
test-conditions: BSA-A647 binding, fluorescence 635 nm, higher = more signal
Criterion: composite z-score meeting or surpassing 0.7. Met: true. Not met: false.

Check out these entries, answers already filled in.
>  <compound>
[N-]=[N+]=Nc1ccccc1[C@@H]1OC(c2ccc(OCCCO)cc2)=N[C@]1(Cc1ccccc1)C(=O)NCC(O)CO (some centres not stated)

>  <label-value>
true

$$$$
>  <compound>
C=C(COC)/C(=C/C[C@H](OC(C)=O)c1ccc(OCCO)cc1)c1cc(C(=O)OC)ccc1OC

>  <label-value>
false

$$$$
>  <compound>
COC(=O)[C@@]1(Cc2ccc(OC)cc2)[C@H]2c3cc(C(=O)N4CCCC4)n(Cc4cccc5ccccc45)c3C[C@H]2CN1C(=O)c1ccccc1

>  <label-value>
true

$$$$
>  <compound>
Cc1cc(C)c(C(O)C2C=CC3C(=O)N(c4ccccc4)C(=O)C3N2Nc2ccc(C(C)C)cc2)c(C)c1 (configuration not stated)

>  <label-value>
false

$$$$
>  <compound>
CC(C)OC(=O)C=C1C[C@@H](c2ccc(C(F)(F)F)cc2)O[C@@H](c2ccc(C(F)(F)F)cc2)O1

>  <label-value>
true

$$$$
>  <compound>
COCCOC(=O)N1C(=O)[C@@]2(c3cc(C#CC4=CCCCC4)ccc31)[C@H](c1ccc(OCCO)cc1)N1[C@H](c3ccccc3)[C@H](c3ccccc3)OC(=O)[C@H]1[C@@H]2C(=O)N1CCN(c2ncccn2)CC1

>  <label-value>
true

$$$$
>  <compound>
CN(C)C(=O)[C@]1(CCS(=O)(=O)c2ccccc2)N=C(c2ccc(OCCCO)cc2)O[C@@H]1c1ccccc1N=[N+]=[N-]

>  <label-value>
true

$$$$
>  <compound>
CN1C(=O)C2C=CC(C(O)c3cccc(O)c3)N(Nc3ccccc3)C2C1=O (configuration not stated)

>  <label-value>
true

$$$$

[in] Please check the record "O=C1O[C@H](c2ccccc2)[C@H](c2ccccc2)N2[C@H]1[C@@H](C(=O)Nc1nc3ccccc3s1)[C@]1(C(=O)Nc3ccc(C#CC4(O)CCCCCC4)cc31)[C@H]2c1ccccc1OCCO" and state if its composite z-score is at or above 0.7.
[out] true

###

assay-target: Alpha-bungarotoxin (Bungarus multicinctus)
protocol-description: alpha-bungarotoxin binders on microarray, profiling panel, artefact control for SMM control protein annotation, biochemical, small-molecule microarray, Alexa647 label, 635/667 nm fluorescence (AID 1117)
test-conditions: alpha-BTX-A647 binding fluorescence, higher = more signal
I'd appreciate it if you could supply composite z-score values for the items below.
One number for each entry.

Example entries and their recorded answers appear below.
>  <compound>
COC(=O)[C@@]1(Cc2ccc(OC)cc2)[C@@H]2C(=CC(=O)[C@H]2CC(=O)C(=O)N(C)C)CN1C(=O)c1ccccc1

>  <measured-parameter>
composite z-score

>  <quantitative-result>
0.923

$$$$
>  <compound>
COc1cc2c(cc1OC)CN(C(=O)[C@@H]1[C@H]3C(=O)O[C@H](c4ccccc4)[C@H](c4ccccc4)N3[C@H](c3ccc(OCCO)cc3)[C@@]13C(=O)Nc1ccccc13)CC2

>  <measured-parameter>
composite z-score

>  <quantitative-result>
1.91

$$$$
>  <compound>
C=C[C@@H](OC)[C@H](OC(=O)Nc1ccc(SC)cc1)c1ccc(O)c(F)c1

>  <measured-parameter>
composite z-score

>  <quantitative-result>
1.22

$$$$

# return composite z-score for each item in the list
1. Cc1cc(C)cc(N2C(=O)CSC2c2cccc([N+](=O)[O-])c2)c1 (centres undefined)
2. CC(C)N1C(=O)C[C@@](C(=O)NCCCN(C)C)(c2ccc([N+](=O)[O-])cc2)[C@H]1c1ccc(CO)cc1
3. NCCCCCNC(=O)[C@@H]1C[C@@H]2C(=O)NCC(=O)N2[C@@H]1c1cccc(OCCO)c1

[out]
1: 1.7; 2: 0.942; 3: 1.01

Answer for every listed entry: what is its composite z-score? The entries follow.
1. Cc1ccc(S[C@]2(C(=O)NCC(F)(F)F)CC(=O)N(C3CCCCC3)[C@@H]2c2ccc(CO)cc2I)cc1
2. O=C1O[C@H](c2ccccc2)[C@H](c2ccccc2)N2[C@H]1[C@@H](C(=O)N1CCN(c3ncccn3)CC1)[C@]1(C(=O)Nc3ccc(C#CC4(O)CCCCCC4)cc31)[C@H]2c1ccc(OCCO)cc1
3. O=C1N(Cc2ccccc2)Cc2ccccc2[C@@H]2OC(c3ccc(OCCCO)cc3)=N[C@]12CCS(=O)(=O)c1ccccc1

[out]
0.587
2.81
1.37

For each of the compounds below, state composite z-score.
1. CCOC(=O)C[C@H]1[C@H](OC(=O)c2ccccc2-c2ccccc2)[C@@H](NC(=O)C2CCCCC2)c2cc(OCCCO)ccc2N1C(=O)Cc1ccc(OC)cc1
2. COC(=O)c1nc2oc1CC[C@@H](CO)NC(=O)N(C)Cc1cnnn1C[C@H](Cc1ccccc1)NC2=O
3. CCOC(=O)C[C@H]1[C@H](OC(=O)c2cc3ccccc3oc2=O)[C@@H](NC(=O)c2ccc(-c3ccccc3)cc2)c2cc(OCCCO)ccc2N1C(=O)c1ccccc1
4. COC(=O)[C@@]1(Cc2ccc(OC)cc2)[C@H]2c3cc(C(=O)N4CCCC4)n(Cc4c(-c5ccccc5)noc4C)c3C[C@H]2CN1C(=O)c1ccccc1
5. CC(C)(C)OC(=O)CC[C@]1(C(=O)NCc2ccccc2)N=C(c2ccc(OCCCO)cc2)O[C@H]1c1ccccc1CN=[N+]=[N-]

[out]
[-0.0654, 1.25, 0.727, 0.818, 0.466]

###

Field: z-score. Provide a value for each of the compounds that follow.
protocol-description: basal RPMI8226 mitochondrial membrane potential changes, profiling panel, cell-based, JC-1 fluorescence, 24 h, 100 nL compound (AID 1169); also: test concentration not given here
test-conditions: RPMI8226 myeloma, JC-1 mitochondrial potential fluorescence, higher = more signal
Numbers only.

>  <compound>
CCOC(=O)[C@H]1[C@@H]2C(=O)N3CCC[C@H]3[C@H](O[Si](C(C)C)(C(C)C)C(C)C)[C@H]2C=C2CCN(S(=O)(=O)c3ccc(C)cc3)C[C@H]21

>  <quantitative-result>
-1.06

$$$$
>  <compound>
CN1C(=O)C2C=CC(C(O)COCc3ccccc3)N(N(c3ccccc3)c3ccccc3)C2C1=O (stereo unspecified)

>  <quantitative-result>
-0.974

$$$$
>  <compound>
COc1ccc(-c2nc(-c3ccccc3)c3c(c2C)CO[Si]3(C(C)C)C(C)C)cn1

>  <quantitative-result>
-0.443

$$$$
>  <compound>
O=C1O[C@H](c2ccccc2)[C@H](c2ccccc2)N2[C@H]1[C@@H](C(=O)Nc1nc3ccccc3s1)[C@]1(C(=O)Nc3ccccc31)[C@H]2c1ccc(OCCO)cc1

>  <quantitative-result>
-1.07

$$$$
>  <compound>
Cc1ccccc1C(O)C1C=CC2C(=O)N(C)C(=O)C2N1N(c1ccccc1)c1ccccc1 (stereo unspecified)

>  <quantitative-result>
-0.217

$$$$

Kindly consider the entry below.
[in] Param item = "COCCOC(=O)N1C(=O)[C@@]2(c3cc(C#CCC(C(=O)OC)C(=O)OC)ccc31)[C@H](C(=O)N1CCc3cc(OC)c(OC)cc3C1)[C@H]1C(=O)O[C@H](c3ccccc3)[C@H](c3ccccc3)N1[C@@H]2c1ccc(OCCO)cc1" ; retrieve measured z-score.
[out] -0.637
